- MEASUREMENT_NOTES: chemical genetic growth profiling, strain panel (AID 1159580);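 note: tested at 20 µM; growth read once vehicle control cultures reached saturation at 30 °C; 1 = growth at the plate median or of vehicle wells; lower values mean less growth of the strain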
- PROTOCOL_CONDITIONS: S. cerevisiae deletion strains, growth OD, locus YHR094C, strain hxt1, stronger effect = lower value
The campaign covered roughly 5,500 compounds. About 2,000 (36%) were called active. Another 18% or so got no clear call; they are omitted. This is one part of the list.
ASSAY_METRIC: normalized growth

Exercise: # normalized growth lookup, item CC1(C)CC2C1CC[C@]1(CBr)CCC3C(CC(=O)O)C(=O)O[C@@]32C1 (some centres undefined)
Solution: 0.979 (inactive)

Exercise: Please do the same for `Cc1cc(=O)[nH]c(=S)[nH]1` as well.
Solution: 1.01 (inactive)

Exercise: Please do the same for `O=C(O)c1ccc(S(=O)(=O)N(Cl)Cl)cc1` as well.
Solution: 1.03 (inactive)

Exercise: Please do the same for `CCN(CC)CCOC(=O)C1(C2CCCCC2)CCCCC1` as well.
Solution: 0.992 (inactive)

Exercise: Please do the same for `CC(=O)Oc1ccc(C(c2ccc(OC(C)=O)cc2)c2ccccn2)cc1` as well.
Solution: 0.989 (inactive)

Exercise: Please do the same for `Nc1ccc(C(=O)O)cc1` as well.
Solution: 1.01 (inactive)

Exercise: Please do the same for CO[C@H]1CC(O[C@@H]2/C(C)=C/C[C@@H]3C[C@@H](C[C@]4(CC[C@H](C)[C@@H](C5CCCCC5)O4)O3)OC(=O)[C@@H]3C=C(C)/C(=N\O)[C@H]4OC/C(=C\C=C\[C@@H]2C)[C@]43O)O[C@@H](C)C1O (some centres undefined) as well.
Solution: 1 (inactive)

Exercise: Please do the same for CC(C)CC(NC(=O)OCC1c2ccccc2-c2ccccc21)C(=O)O (centres undefined) as well.
Solution: 0.997 (inactive)

Exercise: Please do the same for `CNNC` as well.
Solution: 0.998 (inactive)
